Test system: Plasmodium berghei
ASSAY_REMARKS: Screen against P. berghei liver stage (PbLuc), transformed with Luciferase, at 10uM
Format: functional, HepG2
CONDITIONS: tested at 10 uM
Screen size: about 69,000 compounds; about 8,600 (12%) showed an effect of 50% or more. What follows is part of a selection rich in strong results, with near analogues and random picks from the rest.
Provide the recorded INHIBITION for the entries that follow.
The number alone won't do; follow it with the unit.

Request: Given the molecule Cc1c[nH]nc1C1CCCN(C(=O)c2c(C)noc2C)C1 (stereo not given) , what is its reported INHIBITION?
Response: 23.4%

Request: Given the molecule CCC(C)CN1CCC(n2cc(C3CCCCC3)nn2)CC1 (stereo not given) , what is its reported INHIBITION?
Response: 77.6%

Request: Given the molecule Cc1cccc(N2CCN(C(=O)Cc3ccccc3O)C(C)C2)n1 (stereo not given) , what is its reported INHIBITION?
Response: 6.83%

Request: Given the molecule C=C(C)CN1CCC(n2cc(C3CCCC3)nn2)CC1 , what is its reported INHIBITION?
Response: 46.4%

Request: Given the molecule OC1(CNc2ccc(Br)cn2)CCC1 , what is its reported INHIBITION?
Response: -28.6%

Request: Given the molecule OCc1cc2ccccc2nc1NC1CC=CC1 , what is its reported INHIBITION?
Response: 62.8%

Request: Given the molecule OCc1cc2ccccc2nc1NCC1CCN(CC(F)(F)F)C1 (stereo not given) , what is its reported INHIBITION?
Response: 63.8%

Request: Given the molecule OCc1cc2ccccc2nc1NCC1(O)CCC1 , what is its reported INHIBITION?
Response: 58.2%

Request: Given the molecule CC(O)c1cn(C2CCN(C(=O)C3(C)CCCCC3)CC2)nn1 (stereo not given) , what is its reported INHIBITION?
Response: 10.3%

Request: Given the molecule Cc1cnn(CC2CCCN2C(=O)c2cccc(-n3ccc(C)n3)c2)c1 (stereo not given) , what is its reported INHIBITION?
Response: -17%

Request: Given the molecule Cc1nc(C)n(CC2CCCN2Cc2cc(-c3cccs3)on2)n1 (stereo not given) , what is its reported INHIBITION?
Response: 40.65%

Request: Given the molecule CCCC(C)CN1CCC(n2cc(C3CCCC3)nn2)CC1 (stereo not given) , what is its reported INHIBITION?
Response: 61.1%

Request: Given the molecule O=C(c1cccnc1)N1CCCC(Cc2nccs2)C1 (stereo not given) , what is its reported INHIBITION?
Response: -9.27%

Request: Given the molecule CC(C)Cc1cn(C2CCN(C(C)CC3CC3)CC2)nn1 (stereo not given) , what is its reported INHIBITION?
Response: -129%

Request: Given the molecule Cc1nc(NCc2noc(C3CCCO3)n2)c2ccsc2n1 (stereo not given) , what is its reported INHIBITION?
Response: 73.2%

Request: Given the molecule OCc1ccc(CN2CCC(n3cc(C4CCCCC4)nn3)CC2)o1 , what is its reported INHIBITION?
Response: 48.8%

Request: Given the molecule FC(F)(F)CN1CCC(CNc2nc3ccccc3o2)C1 (stereo not given) , what is its reported INHIBITION?
Response: 24.8%

Request: Given the molecule CN1CCC/C1=N\S(=O)(=O)c1ccc(NC(=O)CCc2cccs2)cc1 , what is its reported INHIBITION?
Response: 27.4%

Request: Given the molecule Cc1nc(NCCc2noc(C3CCCO3)n2)c2sccc2n1 (stereo not given) , what is its reported INHIBITION?
Response: 82.2%

Request: Given the molecule Cc1nnc2n1CC(CNc1ncnc3ccccc13)CC2 (stereo not given) , what is its reported INHIBITION?
Response: 22%

Request: Given the molecule Cc1ccc2c(c1)SCC(=O)N2Cc1noc(C2CCCO2)n1 (stereo not given) , what is its reported INHIBITION?
Response: 14.9%

Request: Given the molecule CC(C)Nc1cc(N2CCC(n3cc(C4CCCC4)nn3)CC2)ncn1 , what is its reported INHIBITION?
Response: 16.1%

Request: Given the molecule CSC(C)C(=O)N(C)CCCc1cc(-c2ccccc2)no1 (stereo not given) , what is its reported INHIBITION?
Response: 57.75%

Request: Given the molecule CC(=O)N1N=C(Cc2ccccc2)OC1C(=O)NCC(C)C (stereo not given) , what is its reported INHIBITION?
Response: -21.1%

Request: Given the molecule CC(=O)N(C)CCCc1cc(-c2ccccc2)no1 , what is its reported INHIBITION?
Response: 24.75%
